Biological target: UniProt P55212
Sequence (P55212 24-179): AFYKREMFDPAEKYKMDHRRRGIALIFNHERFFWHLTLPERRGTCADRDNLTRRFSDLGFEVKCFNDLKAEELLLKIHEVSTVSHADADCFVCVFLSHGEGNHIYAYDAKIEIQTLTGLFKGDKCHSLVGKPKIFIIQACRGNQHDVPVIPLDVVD
Sequence (P55212 194-293): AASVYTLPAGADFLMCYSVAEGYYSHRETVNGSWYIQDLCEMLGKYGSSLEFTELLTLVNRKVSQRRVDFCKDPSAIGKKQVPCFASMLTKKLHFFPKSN
Experiment: Fluorometric enzymatic assay, active recombinant Caspase-6
Type: biochemical
Conditions: 10-point titration 0.1 nM to 3.3 μM, 30-minute incubation at 37° C.; read-out: IC50 values (μM) Caspase-6

record-smiles: CC(C)[C@H](NC(=O)[C@@H](NC(=O)[C@H](CC(=O)O)NC(=O)OCc1ccccc1)c1ccccc1)C(=O)N[C@H](/C=C(\Cl)S(C)(=O)=O)CC(=O)O
experimental-system: UniProt P55212
IC50: > 3.33 µM
//
record-smiles: CC(C)[C@H](NC(=O)[C@H](Cc1cccc2ccccc12)NC(=O)[C@H](CC(=O)O)NC(=O)OCc1ccccc1)C(=O)N[C@H](/C=C/S(C)(=O)=O)CC(=O)O
experimental-system: UniProt P55212
IC50: > 3.33 µM
//
record-smiles: CC(C)[C@H](NC(=O)[C@@H](NC(=O)[C@H](CC(=O)O)NC(=O)OCc1ccccc1)c1ccccc1)C(=O)N[C@H](/C=C/S(C)(=O)=O)CC(=O)O
experimental-system: UniProt P55212
IC50: > 3.33 µM

* * *

Biological target: Caspase-7 (Homo sapiens (Human))
Sequence (P55210 whole entry): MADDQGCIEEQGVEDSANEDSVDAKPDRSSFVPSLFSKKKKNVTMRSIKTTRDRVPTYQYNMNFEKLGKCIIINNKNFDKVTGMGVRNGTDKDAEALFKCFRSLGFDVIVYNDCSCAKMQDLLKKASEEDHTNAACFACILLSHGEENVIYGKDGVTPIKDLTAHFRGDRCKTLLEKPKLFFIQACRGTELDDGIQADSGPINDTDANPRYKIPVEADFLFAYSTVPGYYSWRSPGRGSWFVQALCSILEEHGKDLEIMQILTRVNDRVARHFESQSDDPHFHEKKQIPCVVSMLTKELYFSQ
Experiment: Caspase-7 Inhibitor Drug Screening Kit, fluorometric (AFC liberation)
Assay type: biochemical
Settings: 30-minute incubation at 37° C.; approximations of the average values; read-out: Caspase enzymatic activity, IC50 (uM) Caspase 7
Square brackets hold non-standard residues; d marks the D form. Peptide text beside a SMILES is read from it. * marks the point of attachment. Phg = N[C@H](C(=O)O)c1ccccc1; Cbz = O=C(OCc1ccccc1)*; OtBu = CC(C)(C)O*
Listed here: items and their measured IC50.
readout-label: IC50 (µM)

molecule: CC(C)[C@H](NC(=O)[C@@H](NC(=O)[C@H](CC(=O)OC(C)(C)C)NC(=O)OCc1ccccc1)c1ccccc1)C(=O)O [Compound 16, Z-Asp(β-tert-butyl)-Phg-Val-OH] (Cbz-Asp(OtBu)-[Phg]-Val-OH)
readout-label: IC50
cmp: >
numeric-value: 3.33
//
molecule: CC(C)[C@H](NC(=O)[C@H](Cc1ccc2ccccc2n1)NC(=O)[C@H](CC(=O)O)NC(=O)OCc1ccccc1)C(=O)N[C@H](/C=C/S(C)(=O)=O)CC(=O)O [Compound 55]
readout-label: IC50
cmp: =
numeric-value: 1.4
//
molecule: CC(C)[C@H](NC(=O)[C@H](CCC(=O)O)NC(=O)[C@H](CC(=O)O)NC(=O)OCc1ccccc1)C(=O)N[C@H](/C=C/S(C)(=O)=O)CC(=O)O [Compound 59, Z-Asp-Glu-Val-Aspmethyl vinyl sulfone]
readout-label: IC50
cmp: =
numeric-value: 0.04
//
molecule: CC(C)[C@H](NC(=O)[C@@H](NC(=O)[C@H](CC(=O)O)NC(=O)OCc1ccccc1)c1ccccc1)C(=O)N[C@H](/C=C/S(=O)(=O)c1ccccc1)CC(=O)O [Compound 69, Z-Asp-Phg-Val-Asp-phenyl Vinylsulfone]
readout-label: IC50
cmp: =
numeric-value: 1.8

* * *

Target: Caspase-10 (Homo sapiens (Human), UniProt Q92851)
Sequence (Q92851 220-415): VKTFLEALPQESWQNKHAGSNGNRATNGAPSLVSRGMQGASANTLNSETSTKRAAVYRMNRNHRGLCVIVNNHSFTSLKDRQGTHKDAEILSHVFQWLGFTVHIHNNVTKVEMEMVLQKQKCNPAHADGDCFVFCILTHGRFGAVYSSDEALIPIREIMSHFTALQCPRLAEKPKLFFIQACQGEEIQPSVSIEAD
Sequence (Q92851 416-521): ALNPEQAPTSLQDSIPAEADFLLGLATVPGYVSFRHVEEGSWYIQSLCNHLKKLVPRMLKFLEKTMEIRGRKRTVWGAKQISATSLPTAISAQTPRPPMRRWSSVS
Assay: Fluorometric enzymatic assay, active recombinant Caspase-10
Conditions: read-out: IC50 values (μM) Caspase-10; 10-point titration 0.1 nM to 3.3 μM, 30-minute incubation at 37° C.
readout-label: IC50

record-smiles: CC(C)[C@H](NC(=O)[C@H](Cc1cccc2ccccc12)NC(=O)[C@H](CC(=O)O)NC(=O)OCc1ccccc1)C(=O)N[C@H](/C=C/S(C)(=O)=O)CC(=O)O
result: > 3.33 µM
//
record-smiles: CC(C)[C@H](NC(=O)[C@@H](NC(=O)[C@H](CC(=O)O)NC(=O)OCc1ccccc1)c1ccccc1)C(=O)N[C@H](/C=C/S(C)(=O)=O)CC(=O)O
result: > 3.33 µM
//
record-smiles: CC(C)[C@H](NC(=O)[C@@H](NC(=O)[C@H](CC(=O)O)NC(=O)OCc1ccccc1)c1ccccc1)C(=O)N[C@H](/C=C(\Cl)S(C)(=O)=O)CC(=O)O
result: 2 µM

* * *

Target: UniProt P42574
Test: Caspase-3 Inhibitor Drug Screening Kit, fluorometric (AFC liberation)
Format: biochemical
Square brackets hold non-standard residues; d marks the D form. Peptide text beside a SMILES is read from it. * marks the point of attachment. Phg = N[C@H](C(=O)O)c1ccccc1; Cbz = O=C(OCc1ccccc1)*; OtBu = CC(C)(C)O*

compound: CS(=O)(=O)/C=C/[C@@H](N)CC(=O)O.Cc1ccc(S(=O)(=O)O)cc1 [Compound 93, AspVSmethyl]
activity against caspase-3: devoid of any activity
//
compound: CC(C)[C@H](NC(=O)[C@@H](NC(=O)[C@H](CC(=O)OC(C)(C)C)NC(=O)OCc1ccccc1)c1ccccc1)C(=O)O [Compound 16, Z-Asp(β-tert-butyl)-Phg-Val-OH] (Cbz-Asp(OtBu)-[Phg]-Val-OH)
activity against caspase-3: devoid of any activity
//
compound: CC(C)(C)OC(=O)C[C@H](N)/C=C/S(C)(=O)=O.Cc1ccc(S(=O)(=O)O)cc1 [Compound 33]
activity against caspase-3: devoid of any activity

* * *

Target: Caspase-3 (Homo sapiens (Human), UniProt P42574)
Sequence (P42574 29-277): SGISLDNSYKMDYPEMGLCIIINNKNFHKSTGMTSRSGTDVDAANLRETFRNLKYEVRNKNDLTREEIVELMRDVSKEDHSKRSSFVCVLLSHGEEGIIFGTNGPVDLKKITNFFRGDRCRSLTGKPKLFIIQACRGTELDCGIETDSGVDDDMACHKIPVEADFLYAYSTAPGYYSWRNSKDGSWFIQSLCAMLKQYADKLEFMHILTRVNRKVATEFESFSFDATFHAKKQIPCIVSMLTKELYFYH
Assay: Caspase-3 Inhibitor Drug Screening Kit, fluorometric (AFC liberation)
Type: biochemical
Conditions: 30-minute incubation at 37° C.; approximations of the average values; read-out: Caspase enzymatic activity, IC50 (uM) Caspase 3
Square brackets hold non-standard residues; d marks the D form. Peptide text beside a SMILES is read from it. * marks the point of attachment. Phg = N[C@H](C(=O)O)c1ccccc1; Cbz = O=C(OCc1ccccc1)*; OtBu = CC(C)(C)O*
readout-label: IC50 (µM)

molecule: CC(C)[C@H](NC(=O)[C@H](Cc1ccc(O)cc1)NC(=O)OCc1ccccc1)C(=O)N[C@@H](C)C(=O)N[C@H](/C=C/S(=O)(=O)c1ccccc1)CC(=O)O
cmp: >
numeric-value: 10
--
molecule: CC(C)(C)OC(=O)C[C@@H](/C=C/S(=O)(=O)c1ccccc1)NC(=O)OC(C)(C)C
cmp: >
numeric-value: 2
--
molecule: CC(C)[C@H](NC(=O)[C@@H](NC(=O)[C@H](CC(=O)OC(C)(C)C)NC(=O)OCc1ccccc1)c1ccccc1)C(=O)O [Compound 16, Z-Asp(β-tert-butyl)-Phg-Val-OH] (Cbz-Asp(OtBu)-[Phg]-Val-OH)
cmp: >
numeric-value: 2
--
molecule: CC(C)[C@H](NC(=O)[C@H](CCC(=O)O)NC(=O)[C@H](Cc1ccc(O)cc1)NC(=O)OCc1ccccc1)C(=O)N[C@H](/C=C/S(C)(=O)=O)CC(=O)O
cmp: =
numeric-value: 0.3
--
molecule: CC(C)[C@H](NC(=O)C(Cc1ccc2ccccc2n1)NC(=O)[C@H](CC(=O)O)NC(=O)OCc1ccccc1)C(=O)N[C@H](/C=C/S(=O)(=O)c1ccccc1)CC(=O)O (some centres unmarked)
cmp: =
numeric-value: 0.3

* * *

Molecular target: Caspase-7 (Homo sapiens (Human))
Assay: Caspase-7 Inhibitor Drug Screening Kit, fluorometric (AFC liberation)
Type: biochemical
Conditions: read-out: IC50 caspase-7

molecule: CC(C)[C@H](NC(=O)[C@@H](NC(=O)[C@H](CC(=O)O)NC(=O)OCc1ccccc1)C1Cc2ccccc2C1)C(=O)N[C@H](/C=C/S(C)(=O)=O)CC(=O)O [Compound 57]
IC50: 180 to 300 nM
--
molecule: CC(C)[C@H](NC(=O)[C@H](CCC(=O)O)NC(=O)[C@H](CC(=O)O)NC(=O)OCc1ccccc1)C(=O)N[C@H](/C=C/S(C)(=O)=O)CC(=O)O [Compound 59, Z-Asp-Glu-Val-Aspmethyl vinyl sulfone]
IC50: 42 nM

* * *

Tested on: EAE in C57BL/6 mice
Assay: Chronic EAE mouse model (MOG35-55 immunization), daily clinical score and body weight
Assay type: in vivo
Design: key: +++: high level improvement; ++: moderate improvement; +: small improvement; −: no improvement
Conditions: average overall effects on the EAE model, i.p.

record-smiles: CC(C)[C@H](NC(=O)[C@H](Cc1cccc2ccccc12)NC(=O)[C@H](CC(=O)O)NC(=O)OCc1ccccc1)C(=O)N[C@H](/C=C/S(C)(=O)=O)CC(=O)O
Reduction in body weight loss: ++

record-smiles: COC(=O)C[C@@H](/C=C/S(C)(=O)=O)NC(=O)[C@@H](NC(=O)[C@@H](NC(=O)[C@H](CC(=O)OC)NC(=O)OCc1ccccc1)c1ccccc1)C(C)C
Reduction in body weight loss: ++

record-smiles: COC(=O)C[C@@H](/C=C(\Cl)S(C)(=O)=O)NC(=O)[C@@H](NC(=O)[C@@H](NC(=O)[C@H](CC(=O)OC)NC(=O)OCc1ccccc1)C1Cc2ccccc2C1)C(C)C
Reduction in body weight loss: ++

* * *

System: proteolytic cleavage of PARP (poly ADP-ribose polymerase) in Hela cells
Assay: Inhibition of staurosporine-induced PARP cleavage in live Hela cells
Format: cell-based
Settings: Homo sapiens, HeLa, 4 h, read-out: % inhibition of PARP cleavage at 50 uM compound, Hela cells, staurosporine 4 hours, 50 uM compound

record-smiles: CC(C)[C@H](NC(=O)[C@@H](NC(=O)[C@H](CC(=O)O)NC(=O)OCc1ccccc1)C1Cc2ccccc2C1)C(=O)N[C@H](/C=C/S(C)(=O)=O)CC(=O)O
inhibition at 50 µM: > 50%
--
record-smiles: CC(C)[C@H](NC(=O)[C@H](Cc1ccc(O)cc1)NC(=O)OCc1ccccc1)C(=O)N[C@@H](C)C(=O)N[C@H](/C=C/S(=O)(=O)c1ccccc1)CC(=O)O
inhibition at 50 µM: 1%
--
record-smiles: COC(=O)C[C@@H](/C=C/S(C)(=O)=O)NC(=O)[C@@H](NC(=O)[C@@H](NC(=O)[C@H](CC(=O)OC)NC(=O)OCc1ccccc1)c1ccccc1)C(C)C
inhibition at 50 µM: 40%
